Entry source: paper PMC9352680

Target: T1, PUF4 RNA-binding domain (Saccharomyces cerevisiae, UniProt P25339 537-888)
T1 sequence: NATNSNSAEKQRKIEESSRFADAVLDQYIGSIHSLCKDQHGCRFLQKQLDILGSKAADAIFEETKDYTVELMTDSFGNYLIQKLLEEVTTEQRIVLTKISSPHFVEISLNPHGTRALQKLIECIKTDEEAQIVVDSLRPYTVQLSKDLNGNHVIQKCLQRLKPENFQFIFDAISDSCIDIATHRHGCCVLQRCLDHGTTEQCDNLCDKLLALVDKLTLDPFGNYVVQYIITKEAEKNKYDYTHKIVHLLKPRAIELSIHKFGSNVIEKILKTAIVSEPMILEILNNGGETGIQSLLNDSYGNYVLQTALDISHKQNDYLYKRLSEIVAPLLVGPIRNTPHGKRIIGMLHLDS
Test: Mg; RNA-MaP; 20 mM Na-HEPES pH 7.4, 30 mM KOAc, 0.75 mM MgCl2, 0.1% Tween-20, 5% glycerol, 0.1 mg/mL BSA, 2 mM DTT; 25 C; 0.0125-409.6 nM protein
Settings: tags: N-His6-TEV cleaved; C-SNAP kept, Cy3B-labelled; label: tethered on chip by stalled RNA polymerase
pKd: −log10 of the molar value.

{"columns": ["binder", "pKd"],
 "data": [
  ["UCUCUUUUUUAUAUAUAUAUCUCUU (ssRNA) [Id_iii_S1_P3E.6_K3.2_C3.3_[C-2T]_H3.2_A3.1_F3.1_T3.2]", 6.31],
  ["UCUCUUAGUAUGUAUCUCUU (ssRNA) [Ib_S1_P3E.1_K3.1_C3.1_H3.1_[T1A]_A3.1_[A6G]_F3.1_T3.1]", 6.42],
  ["UCUCUUUAUAUUAUUCUCUCUU (ssRNA) [Ib_S1_P5E.1_K5.1_C5.1_H5.1_[G2A]_A5.1_F5.1_[A10C]_T5.1]", 6.34],
  ["Ib_S4_P5E.1_K5.1_C5.1_H5.1_A5.1_[T6A]_[A7G]_F5.1_T5.1 (ssRNA) RNA: UUUGACAACUGAUCGUUCUUUCUUGUAUAGUUAUUCUUUCUCGAUCAGUUGUCUUU", 7.97],
  ["Ib_S2_P5E.1_K5.1_C5.1_H5.1_[G2T]_A5.1_[T6A]_F5.1_T5.1 (ssRNA) RNA: UUUGAUUAAUAUGAUAUCGUUCUUUCUUUUAUAAUUAUUCUUUCUCGAUAUCAUAUUAAUCUUU", 5.70],
  ["UCUCUUUGUAAAUAUCUCUCUU (ssRNA) [Ic_S1_P5E.1_K5.1_C5.1_H5.1_A5.1_[T5A]_[T6A]_[A7T]_F5.1_[T8A]_[A10C]_T5.1]", 7.57],
  ["ACAAACAAUAUAUUAUUAAUACAAAC (ssRNA) [Id_ii_S3_P5E.3_K5.2_C5.2_[C-2A]_[T-1A]_H5.2_A5.1_F5.1_T5.2_[T11A]_[A12T]]", 6.21],
  ["Ie_S2_P3E.2_K3.1_C3.2_[+-2TTCC]_H3.1_A3.1_F3.1_T3.2 (ssRNA) RNA: UUUGAUUAAUAUGAUAUCGUUCUUUCUCUUCCUUGUAUAUAUAUUCUUUCUCGAUAUCAUAUUAAUCUUU", 9.09],
  ["Id_ii_S2_P3E.2_K3.1_C3.2_[T-1A]_H3.1_A3.1_F3.1_T3.2_[T9A]_[A10G] (ssRNA) RNA: UUUGAUUAAUAUGAUAUCGUUCUUUCUCAUGUAUAUAAGUUCUUUCUCGAUAUCAUAUUAAUCUUU", 7.82]
]}
